Every entry's value here was drawn from patent US12710366B2.

protocol.notes: UV/vis absorption and emission spectra (Stokes shift)
Type: physicochemical
reported.conditions: in MeCN
readout.kind: absorption band position (nm)
Write it as a number; the unit nm goes unstated.

# lookup: absorption band position of C=C(C)C(=O)OCCN(C)c1ccc(NC(=S)NC(=O)c2ccccc2)c2nonc12 [Compound 19] 462
